Biological target: KcsA K^+ channel (Streptomyces lividans, UniProt P0A334, Y82C)
Experiment: single-channel recording in planar lipid bilayer, block of open-channel current
experimental.endpoint: pKi
Remember, pKi is on a log scale: it is -log10 of the molar concentration.

Lookup: Checklist item: pKi tested on KcsA K^+ channel (Streptomyces lividans, UniProt P0A334, Y82C), entry CC[N+](CC)(CC)CC , value?
Found: 1.64
